The reported numbers originate from ChEMBL document CHEMBL3507680.

Test: Human HepG2 cell viability assay in 384 well format
Type: toxicity, cell-based
Set-up: dose 125 nL, time 70.5 hour; concentration not given beside the values
Conditions: HepG2 cells, read-out: Inhibition
measure: cytotoxicity at 70.5 h (%)
Field: numeric (%). Do not append units.

The cases that follow already have their cytotoxicity at 70.5 h on record.
CC(=O)N1CCCN(Cc2cc(F)cc(Br)c2)CC1
21
Cc1c[nH]c(CN(C)C(=O)C2CC(=O)N(Cc3ccncc3)C2)n1 (stereo not given)
11.9
Cc1cc(C)n(C2CCCN(C(=O)c3ccc(N(C)C)nn3)C2)n1 (stereo not given)
-4.23
CN1CCCC1CNC(=O)CCOc1ccc(Br)cc1 (stereo not given)
2.76

Would you kindly look at the next entry?
Specify cytotoxicity at 70.5 h for "COc1c(C)cnc(CNC(=O)CCc2nc3ccccc3[nH]2)c1C" and stop.
-3.14

----------
Assay: Human HepG2 cell viability assay in 384 well format
Format: toxicity, cell-based
Set-up: dose 125 nL, time 70.5 hour; concentration not given beside the values
Conditions: HepG2 cells, read-out: Inhibition
measure: cytotoxicity at 70.5 h (%)
Number only, in %; omit the unit.

Study these solved cases before continuing.
CCc1nc(CN2CCN(c3ncnc4cc(F)ccc34)CC2)no1
24.8
Cc1cc(CC(=O)NCc2ccnc(OCC(F)(F)F)c2)no1
34

Would you kindly look at the next entry?
State its cytotoxicity at 70.5 h for this molecule: "CCC[C@H]1CN(Cc2ccc(N(C)C)nc2)C[C@@H]1NC(=O)CO"
-6.62

----------
Here, each record is paired with measured cytotoxicity at 70.5 h data.
Experiment: Human HepG2 cell viability assay in 384 well format
Format: toxicity, cell-based
Parameters: dose 125 nL, time 70.5 hour; concentration not given beside the values
Conditions: HepG2 cells, read-out: Inhibition

Study these solved cases before continuing.
Cc1cnc(C(=O)N2CCCCC2c2nc(C)cs2)cn1 (configuration not stated)
-0.288%
COc1ccc(F)cc1C(C)NC(=O)Nc1nnc(C)s1 (configuration not stated)
-12.6%
CCn1cnnc1CNC(=O)N1CCC(CN2CCOCC2)CC1
-14.7%

Retrieve cytotoxicity at 70.5 h measured for "CCc1nnc2n1CCN(Cc1csc(-c3ncccn3)n1)C2" and print it.
-9.92%

Fill in reported cytotoxicity at 70.5 h for this entry: "CCc1nnc(Sc2nn3cc(C)nc3s2)n1C"
-2.38%

Give the value of cytotoxicity at 70.5 h reported for the following: "COCCNC(=O)[C@H]1C[C@@H]2CCN(c3ncccn3)C[C@@H]2O1"
-4.51%

Identify the reported cytotoxicity at 70.5 h for the following entry. Cc1cc(NC(=O)CN2CCCCC2Cn2nc(C)nc2C)on1 (configuration not stated)
-8.71%

----------
Reported cytotoxicity at 70.5 h values are given for each entry in this list.
Assay: Human HepG2 cell viability assay in 384 well format
Assay type: toxicity, cell-based
Set-up: dose 125 nL, time 70.5 hour; concentration not given beside the values
Details: HepG2 cells, read-out: Inhibition
Respond with the bare value in %.

Worked cases, answers included:
O=C(C1CCCCC1)N1CCCC2(CCN(c3cnccn3)CC2)C1
23.6
CN1CC(Oc2ccccc2)=NC(SCC(=O)c2ccccc2)=N1
-0.583
c1cc(NC2CC3(CCN(Cc4cscn4)C3)C2)ncn1 (stereo unspecified)
-7.63

Item "O=C(NCC1CC1)c1cc2c(s1)CCN2C(=O)c1ccc(F)cc1" : provide cytotoxicity at 70.5 h
-9.03

# return recorded cytotoxicity at 70.5 h for entry CC(C)C(C(=O)N1CCC2(CC1)CN(C)C(=O)O2)c1ccccc1 (stereo unspecified)
-8.69

Respond only with cytotoxicity at 70.5 h recorded for "CCOCC(=O)N1C[C@@H](O)[C@H](NC(C)=O)C1"
-4.78

----------
Assay: Human HepG2 cell viability assay in 384 well format
Assay type: toxicity, cell-based
Design: dose 125 nL, time 70.5 hour; concentration not given beside the values
Details: HepG2 cells, read-out: Inhibition
measure: cytotoxicity at 70.5 h (%)
Give just the numeric value; % need not be written.

Use the examples below as a reference point.
Cn1nc(Cn2ccnc2)c2c1CN(Cc1ccoc1)C2
24.7
CN(CC1CC1)S(=O)(=O)c1ccc(C(F)(F)F)cc1C#N
-11.7
CC(C)Cc1cc(NC(=O)c2n[nH]c3ccccc23)n(C)n1
-5.98
CCCNC(=O)C(C)Nc1cccc(Oc2ccc(C#N)cn2)c1 (stereo not given)
24.3
CCOCCOC(C)C(=O)Nc1ccnn1-c1ccccc1C (stereo not given)
-4.2
CN(c1ccncn1)C1CC2(CCN(C(=O)c3ccsc3)C2)C1 (stereo not given)
-28.9
O=C(C1CC1)N1CC[C@H](c2nnc(-c3ccccc3F)o2)C1
-7.55
O=C(c1ccc(CN2CCCC2)cc1)N1CCCC(n2cccn2)C1 (stereo not given)
-5.06
Cn1ccc(CN2CCCC2c2ccc3c(c2)OCCCO3)cc1=O (stereo not given)
-12.3
CCc1nccn1CCC(=O)N1CC[C@H](CO)[C@H](O)C1
-10.2

Given "COCCNC(=O)c1cnc(C)nc1C" , respond with its cytotoxicity at 70.5 h.
34.7

Read the entry "COCC(=O)N[C@H]1C[C@H]2C(=O)NC[C@@H](CCC(=O)NC3CC3)N2C1" and write its reported cytotoxicity at 70.5 h.
-2.9

Please report the measured cytotoxicity at 70.5 h for "Cn1cc(CN2CCOC[C@H]2c2nc(C(C)(C)C)co2)c2ccccc21"
-2.71

Identify measured cytotoxicity at 70.5 h corresponding to CN(Cc1noc2c1CCCC2)C(=O)C1CCOc2ccccc2C1 (stereo not given)
-3.46

Determine its reported cytotoxicity at 70.5 h: "CC(C)Oc1cccc(C(=O)Nc2nncs2)c1"
-11.6

----------
Test: Human HepG2 cell viability assay in 384 well format
Assay type: toxicity, cell-based
Set-up: dose 125 nL, time 70.5 hour; concentration not given beside the values
Conditions: HepG2 cells, read-out: Inhibition
measure: cytotoxicity at 70.5 h (%)
# output: bare number, implied unit %

Cc1cc(NCCO)nc(-c2ccccc2O)n1
6.62
COc1ccc(CNC(C)c2ccc(Cl)cc2)c(OC)c1OC (configuration not stated)
13.3
N#Cc1cc(F)c(NCCc2ccc(S(N)(=O)=O)cc2)c(F)c1
-2.35
c1cnc(NCc2cncc3c2CCN(CC2CC2)C3)nc1
3.44
CC(C)NC1CCc2c(ccc(=O)n2CCN2CCCC2=O)C1 (configuration not stated)
-4.58
O=S(=O)(NC1CCCN(c2ncccn2)C1)N1CCCCCC1 (configuration not stated)
-7.28
CCCc1ccc(CN2CCC3(CCC(=O)N(C)CC3)CC2)o1
17.3
CC(C(=O)NC(N)=O)N(C)CCCc1cc(-c2ccccc2)no1 (configuration not stated)
-3.63

Determine from records and report cytotoxicity at 70.5 h for "CC(C)c1noc(CNc2ccccc2CC(=O)N(C)C)n1"
-2.98

Provide one value: measured cytotoxicity at 70.5 h of Cc1noc(C)c1C(=O)NCc1ccc(N2CCOC(C)C2)nc1 (configuration not stated)
4.56

Fill in cytotoxicity at 70.5 h for record Cc1cc(C(=O)NCC2SCCc3ccccc32)no1 (configuration not stated)
-14.4

Tell me its cytotoxicity at 70.5 h given CCc1cc(O)nc(C2CCCN2C(=O)c2cc(C)no2)n1 (configuration not stated) as the entry.
8.47

Note down cytotoxicity at 70.5 h recorded for "CCOc1cc(C)c(-c2cc(N)[nH]n2)cc1OCC"
-8.56

----------
Catalogue of cytotoxicity at 70.5 h values
Assay: Human HepG2 cell viability assay in 384 well format
Assay type: toxicity, cell-based
Parameters: dose 125 nL, time 70.5 hour; concentration not given beside the values
Settings: HepG2 cells, read-out: Inhibition
Write the number in % without appending the unit.

CCc1nc(C2CCCN2Cc2cc(C)nc3ccccc23)no1 (stereo not given)
2.62

Fill in reported cytotoxicity at 70.5 h for this entry: Cn1cc(C2CN(C(=O)Cc3coc(-c4ccccc4)n3)CCO2)cn1 (stereo not given)
4.27

// Input: "O=C(CCO)N1C[C@H]2CN(c3ccccc3)C(=O)[C@H]2C1" . Output its cytotoxicity at 70.5 h only.
-8.23

Please supply the value of reported cytotoxicity at 70.5 h for the item "O=C(CCC1CCN(C(=O)c2cnco2)CC1)NCc1cccc(Cl)c1"
-5.59

Let me know recorded cytotoxicity at 70.5 h for COCC1c2nnn(CC3CC3)c2CCN1C(=O)C1CCOCC1 (stereo not given) , thanks.
-11.4

Entry Cc1nc(CN2CCCC(NCc3cccc4ccccc34)C2)no1 (stereo not given) needs its cytotoxicity at 70.5 h filled in; supply it.
27.7

----------
Assay: Human HepG2 cell viability assay in 384 well format
Format: toxicity, cell-based
Design: dose 125 nL, time 70.5 hour; concentration not given beside the values
Details: HepG2 cells, read-out: Inhibition
Here, each record is paired with measured cytotoxicity at 70.5 h data.
// return numeric value only (unit: %, not printed)

Observe how each entry below is paired with its result.
CCN(CC)C(CNC(=O)c1ccc(-n2cncn2)cc1)c1ccsc1 (centres undefined)
-3.69
COc1ccc(F)c(CN2CCCC(O)(CNCC(C)(C)C)C2=O)c1 (centres undefined)
13.1
CO[C@@H]1CCN(c2ncc(F)cn2)[C@@H]2CN(Cc3cccnc3)C[C@@H]21
-0.732

Specify cytotoxicity at 70.5 h for "CC(=O)Nc1nc(CN2CCn3c(C)nnc3C2)cs1" and stop.
-2.82

Provide only the value of recorded cytotoxicity at 70.5 h for "C=C(C)CN(CC)S(=O)(=O)c1ccccc1C#N"
-7.47

For the compound "COc1ccccc1CC(=O)NS(=O)(=O)c1ccc(C#N)cc1" , give its measured cytotoxicity at 70.5 h value.
4.13

Indicate the recorded cytotoxicity at 70.5 h value for this compound: COc1cc(O)cc2c1C(=O)CC(c1ccc(O)cc1)O2 (centres undefined)
-14

Item NC(=O)c1ccc(C2CCCN2C(=O)CCc2nc3ccccc3s2)s1 (centres undefined) : provide cytotoxicity at 70.5 h
-1.87

State, in one line, measured cytotoxicity at 70.5 h of "CCN(C)c1ncnc2c1CCN(C(=O)c1ccc(C)o1)CC2"
-11.3

Look up and report measured cytotoxicity at 70.5 h for this entry: "COCC1(C(=O)N[C@H]2CN(c3noc(C)n3)C[C@@H]2C2CC2)CCC1"
-1.28

Specify measured cytotoxicity at 70.5 h for "C[C@@H](O)CNC(=O)c1nc(Cc2c(Cl)cccc2Cl)no1" .
-8.72
